All values here come from patent EP4644375A1.

- ASSAY_REMARKS: In vivo GBM rat model: plasma chemistry
- CONDITION: GBM rats, 30 mg/kg oral, 5 days, plasma at necropsy
REPORTED_METRIC: AST

Known results for compounds:
C=CCOC(=O)COc1ccc2c(c1)CCC(=O)N2 | 132.5 IU/L
O=C(COc1ccc2c(c1)CCC(=O)N2)N/N=C/c1cnc(-c2ccc(Cl)cc2)nc1 | 96.48 IU/L
O=C1CCc2cc(OS(=O)(=O)c3cccc4ccccc34)ccc2N1 | 104.7 IU/L

Query block: Give its AST value. Item: `COc1cc(NC(=O)COc2ccc3c(c2)CCC(=O)N3)cc(OC)c1`
Result block: 127.9 IU/L

Query block: Need AST, item `C=Cc1ccc(COc2ccc3c(c2)CCC(=O)N3)cc1`
Result block: 96.87 IU/L

Query block: # get_value(readout='AST', item= Cn1nnc2c(C(N)=O)ncn2c1=O [TMZ, Temozolomide, reference compound] )
Result block: 114.63 IU/L

Query block: I have this compound here, `CC(C)CCOc1ccc2c(c1)CCC(=O)N2` , and I need its recorded AST.
Result block: 129.93 IU/L
